Reported melting point values for a set of compounds

These solved cases illustrate the format of a correct answer.
>>> observed("O=c1c2sccc2nc(CNc2ccccc2F)n1-c1ccccc1Cl [Example 17]")
"175 to 176 °C"
>>> observed("Cl.O=c1c2sccc2nc(CNc2cccc(CN3CCCC3)c2)n1-c1ccccc1Cl")
"148 to 151 °C"
>>> observed("O=c1c2cc(F)ccc2nc(CNCc2ccccc2F)n1-c1ccccc1Cl")
"140 °C"

Req: Query: melting point; subject: O=c1c2cc(F)ccc2nc(CNc2ccccc2F)n1-c1cccnc1Cl
Resp: 180 to 182 °C

Req: Entry to check: N#Cc1ccccc1NCc1nc2ccc(F)cc2c(=O)n1-c1cccnc1Cl
Resp: 183 to 187 °C

Req: Entry to check: N#Cc1cccc(NCc2nc3ccc(F)cc3c(=O)n2-c2ccccc2Cl)c1
Resp: 225 to 228 °C

Req: Entry to check: Cl.O=c1c2cc(F)ccc2nc(CNc2ccccn2)n1-c1ccccc1Cl
Resp: 90 to 100 °C
